# assayNotes: Degradation in human plasma (HPLC peak area)
# Type: in vitro ADME
# recordedConditions: human, plasma
Square brackets hold non-standard residues; d marks the D form. Peptide text beside a SMILES is read from it. Ala(indol-4-yl) = N[C@@H](Cc1cccc2[nH]ccc12)C(=O)O; Tle = CC(C)(C)[C@H](N)C(=O)O
Measured half-life at 0.5 mg/mL accompanies every entry in the list below.
Give the value in min but do not write min after it.

CC[C@H](C)[C@H](NC(=O)[C@H](Cc1ccc(O)cc1)NC(=O)[C@@H]1CCCN1C(=O)[C@H](CCCNC(=N)N)NC(=O)[C@H](N)CCCCN)C(=O)N[C@@H](CC(C)C)C(=O)O [NT2, reference compound] (H-[dK]RPYIL-OH; N-terminus and C-terminus assumed) :: 51

In plain terms, CC(C)C[C@H](NC(=O)[C@@H](NC(=O)[C@H](Cc1cccc2[nH]ccc12)NC(=O)[C@@H]1CCCN1C(=O)[C@H](CCCNC(=N)N)NC(=O)[C@@H](N)CCCNC(=N)N)C(C)(C)C)C(=O)O [NT65L] (H-RRP[Ala(indol-4-yl)][Tle]L-OH; N-terminus and C-terminus assumed) has a documented half-life at 0.5 mg/mL of 66

---

# assayNotes: Catalepsy bar test in rats
# Type: in vivo, rat
# recordedConditions: male, Sprague-Dawley, rat, in vivo; ip, at 180 minutes; read-out: ED50 haloperidol-induced catalepsy
readoutType: ED50 at 180 min
For clarity, give the value followed by its unit.

In plain terms, O=C(CCCN1CCC(O)(c2ccc(Cl)cc2)CC1)c1ccc(F)cc1 [Haloperidol, reference compound] has a documented ED50 at 180 min of 0.31 mg/kg

---

Measured Peak % MPE accompanies every entry in the list below.
# assayNotes: Hot plate test (antinociception, % MPE) in rats
# recordedConditions: 5 mg/kg intraperitoneal, rats
Square brackets hold non-standard residues; d marks the D form. Peptide text beside a SMILES is read from it. Ala(indol-4-yl) = N[C@@H](Cc1cccc2[nH]ccc12)C(=O)O; NMeR = CN[C@@H](CCCNC(=N)N)C(=O)O; Tle = CC(C)(C)[C@H](N)C(=O)O; Dab = NCC[C@H](N)C(=O)O
For clarity, give the value followed by its unit.

Examples from the recorded data:
CC[C@H](C)[C@H](NC(=O)[C@H](Cc1cccc2[nH]ccc12)NC(=O)[C@@H]1CCCN1C(=O)[C@H](N)CCCCN)C(=O)N[C@@H](CC(C)C)C(=O)O [NT73] (H-[dK]P[Ala(indol-4-yl)]IL-OH; N-terminus and C-terminus assumed) :: 40% @
CN[C@@H](CCCNC(=N)N)C(=O)N[C@@H](CCN)C(=O)N1CCC[C@H]1C(=O)N[C@@H](Cc1cccc2[nH]ccc12)C(=O)N[C@H](C(=O)N[C@@H](CC(C)C)C(=O)O)C(C)(C)C [NT71] (H-[NMeR][Dab]P[Ala(indol-4-yl)][Tle]L-OH; N-terminus and C-terminus assumed) :: 79% @
CC(C)C[C@H](NC(=O)[C@@H](NC(=O)[C@H](Cc1cccc2[nH]ccc12)NC(=O)[C@@H]1CCCN1C(=O)[C@H](CCCNC(=N)N)NC(=O)[C@H](N)CCCCN)C(C)(C)C)C(=O)O [NT66L] (H-[dK]RP[Ala(indol-4-yl)][Tle]L-OH; N-terminus and C-terminus assumed) :: 100% @

In plain terms, CC(C)C[C@H](NC(=O)[C@@H](NC(=O)[C@H](Cc1cccc2[nH]ccc12)NC(=O)[C@@H]1CCCN1C(=O)[C@H](N)CCCCN)C(C)(C)C)C(=O)O [NT72] (H-[dK]P[Ala(indol-4-yl)][Tle]L-OH; N-terminus and C-terminus assumed) has a documented Peak % MPE of 100% @

Value source: patent US7098307B2
